Source: ChEMBL document CHEMBL1800028

Listed compounds paired with reported IC50
- Study Target: Nicotinamide phosphoribosyltransferase (Homo sapiens, UniProt P43490)
- Sequence (P43490 whole entry): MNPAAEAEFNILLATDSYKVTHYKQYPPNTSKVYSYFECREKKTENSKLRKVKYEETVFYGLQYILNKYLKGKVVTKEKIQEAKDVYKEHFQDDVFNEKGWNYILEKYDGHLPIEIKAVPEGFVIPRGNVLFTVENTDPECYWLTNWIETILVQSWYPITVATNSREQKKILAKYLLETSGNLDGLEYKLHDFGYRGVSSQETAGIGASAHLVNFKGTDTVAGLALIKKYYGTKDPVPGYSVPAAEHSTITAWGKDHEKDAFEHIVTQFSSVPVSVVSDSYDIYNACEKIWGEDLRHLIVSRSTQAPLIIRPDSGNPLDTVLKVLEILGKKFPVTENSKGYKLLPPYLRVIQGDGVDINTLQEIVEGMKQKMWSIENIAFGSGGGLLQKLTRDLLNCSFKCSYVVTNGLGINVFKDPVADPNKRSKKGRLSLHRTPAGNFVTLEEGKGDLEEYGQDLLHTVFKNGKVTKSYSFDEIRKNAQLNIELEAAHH
- Assay Info: Inhibition of nicotinamide phosphoribosyltransferase-catalyzed conversion of nicotinamide to nicotinamide mononucleotide

Worked examples, 2 compounds total:
| Substance Smiles | Result |
| --- | --- |
| Cc1nc2ccc(CN(C(=O)C3CC3)c3ccc(C(=O)NCc4cccnc4)cc3)cc2c(=O)n1C | > 10 µM |
| CC(C)=CC(=O)N(Cc1ccc2nc(C)n(C)c(=O)c2c1)c1ccc(C(=O)NCc2cccnc2)cc1 | > 10 µM |

Q. Report IC50 for `CCCCN(Cc1ccccc1Cl)c1ccc(C(=O)NCc2cccnc2)cc1` tested on Nicotinamide phosphoribosyltransferase (Homo sapiens, UniProt P43490).
A. > 10 µM
